Data origin: patent US20180066058A1

# TARGET OF ASSAY: T1, human ICOS-mFc (Chimerigen) (human, UniProt Q9Y6W8 21-140)
# T1 construct: also called human ICOS receptor; human ICOS Receptor; not shown: mouse Fc of the bought construct
# T1 sequence: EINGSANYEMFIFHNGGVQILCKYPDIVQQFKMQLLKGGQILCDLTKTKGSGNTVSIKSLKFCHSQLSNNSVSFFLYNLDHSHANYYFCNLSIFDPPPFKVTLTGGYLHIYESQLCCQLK
# EXPERIMENT DESCRIPTION: HTRF neutralisation of Alexa 647 human B7-H2 binding to human ICOS-mFc; human IgG4.PE; mean, n = 4
OUTCOME MEASURE: pIC50
The meaning of pIC50 here: minus log10 of the concentration in molar units.

Please look at this binder and report its pIC50: STIM001 human IgG4.PE (antibody, V domains shown, Human IgG4.PE (null-effector) format) VH: QVQVVQSGAEVKKPGASVKVSCKASGYTFSTFGITWVRQAPGQGLEWMGWISAYNGDTNYAQNLQGRVIMTTDTSTSTAYMELRSLRSDDTAVYYCARSSGHYYYYGMDVWGQGTTVTVSS VL: DIVMTQSPLSLPVTPGEPASISCRSSQSLLHSNEYNYLDWYLQKPGQSPQLLIFLGSNRASGVPDRFSGSGSGTDFTLKITRVEAEDVGIYYCMQSLQTPLTFGGGTKVEIK
8.89
